test_summary: GAA30 FXN promoter activators, confirmation, counter-screen for GAA850 frataxin promoter activator project, cell-based, luminescence, HEK293, lucGAA30, triplicate (AID 588350);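 further: counterscreen of GAA850 promoter hits where activity marks nonselective or luminescence artifacts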
applied_conditions: HEK293 lucGAA30 FXN promoter luciferase, 24 h; at 6 µM; DMSO = 0%, 5 µM ipriflavone = 100%
About 1,200 (63%) of roughly 1,900 compounds were called active.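 How the source made its calls: active means mean activation above the mean of solvent-only control wells plus 3 SD (cut at about 22% in these data); inactive means the rest.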 The set was probably picked from earlier hits. A selection follows.
Permitted responses: 1 (yes) (active), 0 (no) (inactive)

Q: Hey, what did the test say about COc1ccc(-c2nnc(SCC(=O)c3cccs3)o2)c(OC)c1 ?
Ans: 1 (yes)

Q: What did this assay record as the result for O=C(Nc1ccc2c(c1)OCCO2)c1cnccn1 ?
Ans: 1 (yes)

Q: Hey, what did the test say about COc1ccc(C2Nc3ccccc3C(=O)N2c2ccc(Cl)cc2)cc1Cn1cc([N+](=O)[O-])cn1 (centres undefined) ?
Ans: 1 (yes)

Q: Which result was noted for this compound in the test: O=C(CN(c1cc(C(F)(F)F)ccc1Cl)S(=O)(=O)c1ccccc1)NCc1cccnc1
Ans: 0 (no)
